All values here come from ChEMBL document CHEMBL1157483.

- TEST_SUMMARY: Volume of distribution at steady state in rat at 1 mg/kg, iv and 2 mg/kg, po
- Type: ADME, organism-based
- MEASUREMENT_CONDITIONS: in vivo, read-out: Vdss
Reported Vd values for a set of molecules
Field: numeric (L/kg). Do not append units.

smiles_repr=Cn1c(N(Cc2ccc(C(=O)Nc3nnn[nH]3)cc2)[C@H]2CC[C@H](C(C)(C)C)CC2)nc2cc(C(F)(F)F)ccc21 observed_property=Vd measured_value=0.74

Please report the recorded Vd for Cn1c(N(Cc2ccc(C(=O)Nc3nnn[nH]3)cc2)[C@H]2CC[C@H](C(C)(C)C)CC2)nc2cc(OC3CCCC3)ccc21 .
0.6

* * *

- ASSAYED_SYSTEM: UniProt:P10635
- Sequence (P10635 whole entry): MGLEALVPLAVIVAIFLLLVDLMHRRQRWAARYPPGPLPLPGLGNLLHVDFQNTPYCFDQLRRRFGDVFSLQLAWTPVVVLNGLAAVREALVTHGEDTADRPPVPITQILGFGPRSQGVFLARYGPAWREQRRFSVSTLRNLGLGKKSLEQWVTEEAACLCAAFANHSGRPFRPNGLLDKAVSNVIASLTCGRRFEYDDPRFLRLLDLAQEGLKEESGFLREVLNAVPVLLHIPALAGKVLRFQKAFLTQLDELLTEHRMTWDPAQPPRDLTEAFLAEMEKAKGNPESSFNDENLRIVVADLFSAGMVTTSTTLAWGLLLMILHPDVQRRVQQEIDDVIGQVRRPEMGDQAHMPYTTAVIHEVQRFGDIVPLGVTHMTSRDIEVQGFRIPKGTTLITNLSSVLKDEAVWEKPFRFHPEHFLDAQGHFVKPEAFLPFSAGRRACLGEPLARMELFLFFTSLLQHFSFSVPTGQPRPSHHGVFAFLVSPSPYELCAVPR
pIC50: −log10 of the molar value.
OBSERVED_PROPERTY: pIC50

# pIC50 lookup, item Cn1c(N(Cc2ccc(C(=O)Nc3nnn[nH]3)cc2)[C@H]2CC[C@H](C(C)(C)C)CC2)nc2cc(C(F)(F)F)ccc21
< 5.00

* * *

- TEST_SUMMARY: Volume of distribution at steady state in rhesus monkey at 0.5 mg/kg, iv and 2 mg/kg, po
- Assay type: ADME, organism-based, Macaca mulatta
- MEASUREMENT_CONDITIONS: in vivo, read-out: Vdss
OBSERVED_PROPERTY: Vd (L/kg)
Give your result in L/kg as a bare value.

Given the entry Cn1c(N(Cc2ccc(C(=O)Nc3nnn[nH]3)cc2)[C@H]2CC[C@H](C(C)(C)C)CC2)nc2cc(C(F)(F)F)ccc21 , report its measured Vd.
0.8

* * *

- TEST_SUMMARY: Oral bioavailability in rhesus monkey at 2 mg/kg
- Assay type: ADME, organism-based, Macaca mulatta
- MEASUREMENT_CONDITIONS: in vivo
OBSERVED_PROPERTY: bioavailability (%)
The response must be a number in % with no trailing unit.

Suppose we examine the compound Cn1c(N(Cc2ccc(C(=O)Nc3nnn[nH]3)cc2)[C@H]2CC[C@H](C(C)(C)C)CC2)nc2cc(C(F)(F)F)ccc21 ; what bioavailability value has been reported?
23

* * *

- TEST_SUMMARY: Clearance in rat at 1 mg/kg, iv and 2 mg/kg, po
- Type: ADME, organism-based
- MEASUREMENT_CONDITIONS: in vivo
OBSERVED_PROPERTY: clearance (mL/min/kg)
// return numeric value only (unit: mL/min/kg, not printed)

smiles_repr=Cn1c(N(Cc2ccc(C(=O)Nc3nnn[nH]3)cc2)[C@H]2CC[C@H](C(C)(C)C)CC2)nc2cc(C(F)(F)F)ccc21 measured_value=12

Okay, next one:
Entry under review: Cn1c(N(Cc2ccc(C(=O)Nc3nnn[nH]3)cc2)[C@H]2CC[C@H](C(C)(C)C)CC2)nc2cc(OC3CCCC3)ccc21 . Reported clearance?
13

* * *

- ASSAYED_SYSTEM: Glucagon receptor (Homo sapiens, UniProt P47871)
- Sequence (P47871 whole entry): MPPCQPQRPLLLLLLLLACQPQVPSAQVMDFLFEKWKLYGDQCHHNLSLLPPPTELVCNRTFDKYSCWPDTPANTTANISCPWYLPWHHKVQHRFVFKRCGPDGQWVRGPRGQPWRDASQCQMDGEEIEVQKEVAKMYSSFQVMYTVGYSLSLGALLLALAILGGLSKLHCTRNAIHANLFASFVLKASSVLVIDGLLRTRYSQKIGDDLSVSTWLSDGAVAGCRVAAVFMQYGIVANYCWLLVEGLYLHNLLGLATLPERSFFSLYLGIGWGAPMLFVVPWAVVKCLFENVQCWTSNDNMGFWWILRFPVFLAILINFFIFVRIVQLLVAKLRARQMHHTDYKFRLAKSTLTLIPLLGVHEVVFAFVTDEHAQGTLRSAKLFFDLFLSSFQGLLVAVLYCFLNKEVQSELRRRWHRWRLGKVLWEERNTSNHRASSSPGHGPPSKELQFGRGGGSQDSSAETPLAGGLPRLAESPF
- TEST_SUMMARY: Displacement of [125I]glucagon from human GCGR expressed in CHO cells
- Format: cell-based
pIC50: −log10 of the molar value.
Returns one of Met or Not met; Met when pIC50 is >= 8.

Recorded results for 8 molecules are shown here.
smiles_repr=CCCn1c(N(Cc2ccc(C(=O)Nc3nnn[nH]3)cc2)[C@H]2CC[C@H](C(C)(C)C)CC2)nc2ccccc21 assayed_system="Glucagon receptor (Homo sapiens, UniProt P47871)" class_name="Not met"
smiles_repr=CCCOc1ccc2nc(N(Cc3ccc(C(=O)Nc4nnn[nH]4)cc3)[C@H]3CC[C@H](C(C)(C)C)CC3)n(C)c2c1 assayed_system="Glucagon receptor (Homo sapiens, UniProt P47871)" class_name=Met
smiles_repr=Cn1c(N(Cc2ccc(C(=O)Nc3nnn[nH]3)cc2)c2ccc(C(C)(C)C)cc2)nc2ccccc21 assayed_system="Glucagon receptor (Homo sapiens, UniProt P47871)" class_name="Not met"
smiles_repr=Cn1c(N(Cc2ccc(C(=O)Nc3nnn[nH]3)cc2)[C@H]2CC[C@H](C(C)(C)C)CC2)nc2cc(O)ccc21 assayed_system="Glucagon receptor (Homo sapiens, UniProt P47871)" class_name=Met
smiles_repr=COc1ccc2c(c1)nc(N(Cc1ccc(C(=O)Nc3nnn[nH]3)cc1)[C@H]1CC[C@H](C(C)(C)C)CC1)n2C assayed_system="Glucagon receptor (Homo sapiens, UniProt P47871)" class_name=Met
smiles_repr=CCOc1ccc2c(c1)nc(N(Cc1ccc(C(=O)Nc3nnn[nH]3)cc1)[C@H]1CC[C@H](C(C)(C)C)CC1)n2C assayed_system="Glucagon receptor (Homo sapiens, UniProt P47871)" class_name=Met
smiles_repr=Cn1c(N(Cc2ccc(C(=O)Nc3nnn[nH]3)cc2)[C@H]2CC[C@H](C(C)(C)C)CC2)nc2cc(OC3CCCC3)ccc21 assayed_system="Glucagon receptor (Homo sapiens, UniProt P47871)" class_name=Met
smiles_repr=CC(C)(C)[C@H]1CC[C@@]2(CCN(c3ccc(OC(F)(F)F)cc3)C(=O)N2Cc2ccc(C(=O)Nc3nnn[nH]3)cc2)CC1 assayed_system="Glucagon receptor (Homo sapiens, UniProt P47871)" class_name="Not met"

Consider the record given below.
Decide: is the reported value of pIC50 for COc1ccc2nc(N(Cc3ccc(C(=O)Nc4nnn[nH]4)cc3)[C@H]3CC[C@H](C(C)(C)C)CC3)n(C)c2c1 equal to or greater than 8?
Met
